Consider the following substances; for each one, report its ID/g.
Species on record: Mus musculus
Test: Radioactivity uptake in the pancreas was expressed as a percentage of the injected radioactive dose per gram of tissue (% ID/g) in B16/F1 Murine Melanoma-Bearing C57 Mice at 24 h
Type: functional, organism-based
Answer format: numeric, % implied, no suffix.

Name the reported ID/g value associated with the substance DOTA-ReCCEHdFRWCKPVD-OH
0.017

Name the reported ID/g value associated with the substance DOTA-ReCCEHdFRWCKPV-NH2
0.027

Name the reported ID/g value associated with the substance DOTA-ReCCEHdFRWCRPV-NH2
0.081

Name the reported ID/g value associated with the substance DOTA-ReCCEHdFRWCKPV-OH
0.064

Name the reported ID/g value associated with the substance Ac-Lys(DOTA)-ReCCEHdFRWCKPV-NH2
0.18
